molecular target: Lysophosphatidic acid receptor 2 (Mus musculus, UniProt Q9JL06); assay: Antagonist activity at mouse LPA2 receptor expressed in HeLa cells assessed as inhibition of LPA-induced calcium mobilization pretreated for 15 mins followed by LPA stimulation by FLIPR analysis; assay type: functional, cell-based; details: read-out: pIC50 (converted)
Sequence (Q9JL06 whole entry): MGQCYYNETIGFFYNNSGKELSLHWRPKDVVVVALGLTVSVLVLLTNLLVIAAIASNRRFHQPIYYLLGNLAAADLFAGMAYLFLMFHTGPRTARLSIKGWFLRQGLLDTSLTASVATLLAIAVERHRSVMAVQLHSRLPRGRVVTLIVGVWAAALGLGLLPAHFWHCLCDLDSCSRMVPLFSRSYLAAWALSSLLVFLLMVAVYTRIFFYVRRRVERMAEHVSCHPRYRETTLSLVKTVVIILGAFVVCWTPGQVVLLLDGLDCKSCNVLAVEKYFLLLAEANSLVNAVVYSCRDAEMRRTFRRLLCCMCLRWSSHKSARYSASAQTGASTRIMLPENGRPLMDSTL
A collection of molecules and their measured IC50
Provide a numeric answer, followed by its unit.

Record excerpt, results attached:
COC(=O)Nc1nc(C)c(S(=O)(=O)N2CCN(C[C@H](C)Nc3ncnc4c(-c5ccc(CN6CCCC6)cc5)cccc34)CC2)s1 ... 17.4 nM
COC(=O)Nc1nc(C)c(S(=O)(=O)N2CCN(C[C@H](C)Nc3ncnc4c(-c5cccnc5C)cccc34)CC2)s1 ... 6.46 nM
COC(=O)Nc1nc(C)c(S(=O)(=O)N2CCN(C[C@H](C)Nc3ncnc4c(-c5sc(C)nc5C)cccc34)CC2)s1 ... 6.92 nM
COC(=O)Nc1nc(C)c(S(=O)(=O)N2CCN(C[C@H](C)Nc3ncnc4c(-c5cccc(CN6CCCC6)c5)cccc34)CC2)s1 ... 4.57 nM
COC(=O)Nc1nc(C)c(S(=O)(=O)N2CCN(C[C@H](C)Nc3ncnc4c(-c5cccc(CN(C)C)c5)cccc34)CC2)s1 ... 4.79 nM
COC(=O)Nc1nc(C)c(S(=O)(=O)N2CCN(C[C@H](C)Nc3ncnc4c(C(=O)N(C)C)cccc34)CC2)s1 ... 3980 nM
Cc1csc2c(N[C@@H](C)CN3CCN(S(=O)(=O)c4ccc(Cl)c(Cl)c4)CC3)ncnc12 ... 295 nM
COC(=O)Nc1nc(C)c(S(=O)(=O)N2CCN(C[C@H](C)Nc3ncnc4c(-c5c(C)noc5C)cccc34)CC2)s1 ... 28.2 nM
COC(=O)Nc1nc(C)c(S(=O)(=O)N2CCN(C[C@H](C)Nc3ncnc4c(-c5cccnc5)cccc34)CC2)s1 ... 2.57 nM
COC(=O)Nc1nc(C)c(S(=O)(=O)N2CCN(C[C@H](C)Nc3ncnc4c(-c5ccc(C)nc5)cccc34)CC2)s1 ... 4.17 nM

As a next step, examine the molecule that follows.
Request: Let me know recorded IC50 for COC(=O)Nc1nc(C)c(S(=O)(=O)N2CCN(C[C@H](C)Nc3ncnc4c(-c5cn(C)nc5C(F)(F)F)cccc34)CC2)s1 , thanks.
Result: 2.04 nM

* * *

assay: in vivo; settings: C57BL/6J, mouse, po, 24.8 mg/kg
Description: Oral absorption in C57BL/6J mouse at 24.8 mg/kg by LC-MS/MS analysis
parameterMeasured: Fa (%)
Kindly provide the numeric value in % only, without the unit symbol.

Request: Complete the entry with Fa for COC(=O)Nc1nc(C)c(S(=O)(=O)N2CCN(C[C@H](C)Nc3ncnc4c(-c5cn(C)nc5C(F)(F)F)cccc34)CC2)s1
Result: 100

* * *

Form field: fraction unbound at 5 h, 5 µM (one value per entry).
test: Protein binding in mouse lungs assessed as fraction unbound at 5 uM measured after 5 hrs by LC-MS/MS analysis
Please state the value as a number alone, without comment.

COC(=O)Nc1nc(C)c(S(=O)(=O)N2CCN(C[C@H](C)Nc3ncnc4c(-c5ccc(C)nc5)cccc34)CC2)s1 ... 0.0175

Request: Annotate the compound COC(=O)Nc1nc(C)c(S(=O)(=O)N2CCN(C[C@H](C)Nc3ncnc4c(-c5c(C)noc5C)cccc34)CC2)s1 with its measured fraction unbound at 5 h, 5 µM.
Result: 0.0185

Request: Consider the compound COC(=O)Nc1nc(C)c(S(=O)(=O)N2CCN(C[C@H](C)Nc3ncnc4c(-c5cccnc5C)cccc34)CC2)s1 and give its recorded fraction unbound at 5 h, 5 µM.
Result: 0.0531

Request: For the compound COC(=O)Nc1nc(C)c(S(=O)(=O)N2CCN(C[C@H](C)Nc3ncnc4c(-c5sc(C)nc5C)cccc34)CC2)s1 , give its reported fraction unbound at 5 h, 5 µM.
Result: 0.022

* * *

test: in vitro; settings: human, liver microsomes, CLH
Description: Intrinsic clearance in human liver microsomes at 0.5 uM in presence of NADPH regenerating system measured for 45 mins per mg protein by LC-MS/MS analysis
parameterMeasured: microsomal CLint at 0.75 h, 0.5 µM

COC(=O)Nc1nc(C)c(S(=O)(=O)N2CCN(C[C@H](C)Nc3ncnc4c(-c5cccc(CN(C)C)c5)cccc34)CC2)s1 ... 38 µL/min/mg
Cc1cccc2c(NC(C)CN3CCN(S(=O)(=O)c4ccc(Cl)c(Cl)c4)CC3)ncnc12 (stereo in doubt; 42b) ... 789 µL/min/mg

Request: Given COC(=O)Nc1nc(C)c(S(=O)(=O)N2CCN(C[C@H](C)Nc3ncnc4c(-c5c(C)noc5C)cccc34)CC2)s1 , respond with its microsomal CLint at 0.75 h, 0.5 µM.
Result: 89 µL/min/mg

Request: Respond only with microsomal CLint at 0.75 h, 0.5 µM recorded for COC(=O)Nc1nc(C)c(S(=O)(=O)N2CCN(C[C@H](C)Nc3ncnc4c(-c5cccnc5C)cccc34)CC2)s1
Result: 21 µL/min/mg

Reference source for all entries: ChEMBL document CHEMBL5385906
